tested-system: T1, rhesus monkey TfR ectodomain fused to a mouse IgG1 Fc fragment (rhesus monkey, UniProt I0FKY7 89-760)
T1 construct: extracellular domain; not shown: mouse IgG1 Fc fragment
test-method-notes: SPR, at equilibrium
Flag rule - Kd less than 40 nM flags y; the remaining entries get n.

binder: C5^V31 (VHH) VHH: EVQLVESGGGVVQPGGSLKLSCVASGTDRSINFIRWYRQAPGKQREFVAGFTATGNTNYADSMKGRFTISRDNTKNAVYLQIDSLKPEDTAVYYCYMLDKWGQGTQVTVSS
class-assignment: n
//
binder: C10a (VHH) VHH: EVQLVESGGGLVQAGDSLRLSCAASGFASHLYAIGWFRQAPGKEREKVSCISSNDGSTYYADSVKGRFTISRDTVKDMVYLQMNSLKPEDTAVYYCATDLTVHCFMAEYDWWGQGTQVTVSS
class-assignment: y
//
binder: B8^V12 (VHH) VHH: EVQLVESGGGVVQPGGSLRLSCAASGEIFYINFMRWYRQAPGKQREWVAGFTRDGSTNYPDSAKGRFTISRDNAKNTVYLQIDSLKPEDTAVYYCYMLDTWGQGTQVTVSS
class-assignment: y
//
binder: B8^V32 (VHH) VHH: EVQLVESGGGVVQPGGSLRLSCAASGEIRSINFMRWYRQAPGKQREWVAGFTRDGSTNYPDSAKGRFTISRDNAKNTVYLQIDSLKPEDTAVYYCYMLDTWGQGTQVTVSS
class-assignment: y
//
binder: C5^V32 (VHH) VHH: EVQLVESGGGVVQPGGSLKLSCVASGTDFSINFIRWYSQAPGKQREFVAGFTATGNTNYADSMKGRLTISRDNTKNAVYLQIDSLKPEDTAVYYCYMLGKWGQGTQVTVSS
class-assignment: n
//
binder: B8^V35 (VHH) VHH: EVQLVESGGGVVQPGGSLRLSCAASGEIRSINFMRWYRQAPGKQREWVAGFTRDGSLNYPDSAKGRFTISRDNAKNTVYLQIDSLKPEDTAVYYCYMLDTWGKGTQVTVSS
class-assignment: y
//
binder: B8^V31 (VHH) VHH: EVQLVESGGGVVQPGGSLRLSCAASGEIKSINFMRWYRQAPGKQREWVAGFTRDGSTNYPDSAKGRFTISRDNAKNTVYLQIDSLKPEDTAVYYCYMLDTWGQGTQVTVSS
class-assignment: y
//
binder: B8^V38 (VHH) VHH: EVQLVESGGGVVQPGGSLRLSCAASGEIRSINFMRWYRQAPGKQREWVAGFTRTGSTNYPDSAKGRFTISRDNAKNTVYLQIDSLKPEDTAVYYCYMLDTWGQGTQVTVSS
class-assignment: n
